Values were extracted from patent US20200297696A1.

Each entry below lists one item and its recorded EC50 value.
Tested on: DUX4 target MBD3L2 expression in FSHD2 muscle cells
Experiment: qPCR of DUX4 target MBD3L2 expression in differentiating MB200 FSHD2 muscle cells
Format: cell-based, human
Conditions: Homo sapiens, 40 hours, MBD3L2 RNA
Please respond with the number in nM and leave the unit unwritten.

Please list EC50 recorded for the compound Oc1ccc(-c2nc(-c3ccncc3)c(-c3ccc(F)cc3)[nH]2)cc1
5.2

Please list EC50 recorded for the compound CNC(=O)c1ccc(C)c(-n2c(C)cc(OCc3ccc(F)cc3F)c(Br)c2=O)c1
0.41

====

Tested on: DUX4 target MBD3L2 expression in FSHD2 muscle cells
Experiment: qPCR of DUX4 target MBD3L2 expression in differentiating MB200 FSHD2 muscle cells
Format: cell-based, human
Conditions: Homo sapiens, 40 hours, MBD3L2 RNA
attribute.measured: pEC50
By convention, pEC50 is the negative base-10 log of a molar concentration.

Cc1c(F)cc(C(=O)NC2CC2)cc1-c1ccc(C(=O)NCC(C)(C)C)cn1 :: 8.62
CCc1nc(-c2cccc(C)c2)c(-c2ccnc(NC(=O)c3ccccc3)c2)s1 :: 7.92

Give reported pEC50 for CC(C)(C)Cn1c(N)nc2ccc(-c3[nH]c(C(C)(C)C)nc3-c3ccc(F)cc3)nc21 (DUX4 target MBD3L2 expression in FSHD2 muscle cells)
8.80
